Let's look at some binders and their measured OD450 nm.
# measurement_target: T1, recombinant cyno monkey PCSK9 protein (cyno monkey, UniProt A8T666 31-692 (rhesus entry), limits assumed, biotin-labelled in the ELISA (Biotin labeling kit))
# T1 construct: also called cyno PCSK9; Cyno Monkey PCSK9-His
# T1 sequence (A8T666 31-692 limits assumed): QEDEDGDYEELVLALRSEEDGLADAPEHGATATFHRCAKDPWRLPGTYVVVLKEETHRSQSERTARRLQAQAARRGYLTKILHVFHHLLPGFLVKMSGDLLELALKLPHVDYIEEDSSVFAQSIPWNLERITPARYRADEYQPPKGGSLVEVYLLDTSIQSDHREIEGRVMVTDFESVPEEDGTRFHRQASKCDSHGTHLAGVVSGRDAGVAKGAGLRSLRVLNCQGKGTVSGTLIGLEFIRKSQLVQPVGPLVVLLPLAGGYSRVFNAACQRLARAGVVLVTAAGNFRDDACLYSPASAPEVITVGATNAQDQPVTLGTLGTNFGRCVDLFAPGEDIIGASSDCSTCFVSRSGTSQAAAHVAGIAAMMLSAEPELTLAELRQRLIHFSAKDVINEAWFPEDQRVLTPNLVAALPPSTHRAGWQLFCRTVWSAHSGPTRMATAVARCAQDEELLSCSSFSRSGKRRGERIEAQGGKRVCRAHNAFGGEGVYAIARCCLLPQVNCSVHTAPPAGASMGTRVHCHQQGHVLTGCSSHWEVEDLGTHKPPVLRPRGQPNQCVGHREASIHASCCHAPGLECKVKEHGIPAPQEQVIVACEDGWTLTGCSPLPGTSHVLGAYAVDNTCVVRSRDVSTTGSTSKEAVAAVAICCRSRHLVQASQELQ
# procedure_details: ELISA, biotin-cyno PCSK9 on streptavidin plate; antibody 0 nM (blank)
State the answer as a number, implicitly in OD450 nm.

binder	uom	OD450 nm
76A1B11, chimeric anti-PCSK9 mAb purified from hybridoma (antibody, V domains shown, From Harbour H2L2 mice: human variable regions, rat constant regions) VH: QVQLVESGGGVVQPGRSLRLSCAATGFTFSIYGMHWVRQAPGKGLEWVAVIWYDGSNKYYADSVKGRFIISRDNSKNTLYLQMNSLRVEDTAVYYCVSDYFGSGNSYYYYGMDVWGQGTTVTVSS VL: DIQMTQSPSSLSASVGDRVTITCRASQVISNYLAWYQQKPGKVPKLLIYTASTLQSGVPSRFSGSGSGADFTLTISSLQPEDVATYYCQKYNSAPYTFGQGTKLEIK	OD450 nm	0.19

For 139G1C5, chimeric anti-PCSK9 mAb purified from hybridoma (antibody, V domains shown, From Harbour H2L2 mice: human variable regions, rat constant regions) VH: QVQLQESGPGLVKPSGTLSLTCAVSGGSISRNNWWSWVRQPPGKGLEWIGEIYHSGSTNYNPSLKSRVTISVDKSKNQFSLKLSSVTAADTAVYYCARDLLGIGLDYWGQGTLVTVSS VL: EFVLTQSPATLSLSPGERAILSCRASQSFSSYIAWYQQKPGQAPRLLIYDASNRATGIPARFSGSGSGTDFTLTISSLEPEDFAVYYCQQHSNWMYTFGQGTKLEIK the binder record lists OD450 nm as 0.2

For 152G2F7, chimeric anti-PCSK9 mAb purified from hybridoma (antibody, V domains shown, From Harbour H2L2 mice: human variable regions, rat constant regions) VH: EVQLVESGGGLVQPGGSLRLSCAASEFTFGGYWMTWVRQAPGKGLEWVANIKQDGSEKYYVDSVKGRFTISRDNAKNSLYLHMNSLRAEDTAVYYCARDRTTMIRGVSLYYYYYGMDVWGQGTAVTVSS VL: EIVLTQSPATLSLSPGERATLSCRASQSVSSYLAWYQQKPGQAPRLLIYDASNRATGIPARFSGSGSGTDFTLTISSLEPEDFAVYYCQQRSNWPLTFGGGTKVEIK the binder record lists OD450 nm as 0.33

For 74C10A8, chimeric anti-PCSK9 mAb purified from hybridoma (antibody, V domains shown, From Harbour H2L2 mice: human variable regions, rat constant regions) VH: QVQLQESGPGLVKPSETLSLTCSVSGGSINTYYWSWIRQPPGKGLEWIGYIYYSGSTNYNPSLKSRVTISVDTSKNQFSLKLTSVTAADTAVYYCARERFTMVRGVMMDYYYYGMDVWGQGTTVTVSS VL: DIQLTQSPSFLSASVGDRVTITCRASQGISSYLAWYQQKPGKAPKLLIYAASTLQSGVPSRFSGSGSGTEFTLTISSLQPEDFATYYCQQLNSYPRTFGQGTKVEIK the binder record lists OD450 nm as 0.21
